# inhibition of growth at 50 µM per record follows
test_description: Cytotoxicity against human COLO205 cells assessed as growth inhibition at 50 uM after 48 hrs by SRB assay
Format: functional
measurement_context: COLO 205, 48 h, read-out: GI
Just the number in %, nothing appended.

Example results:
- structure_smiles: "COc1cc(/C=C/C(=O)/C=C/c2cc(OC)c(OC)c(OC)c2)ccc1OCc1cn(CCCCCOc2cc(=O)oc3ccccc23)nn1"
  inhibition of growth at 50 µM, %: 51
- structure_smiles: "COc1ccc(/C=C/C(=O)/C=C/c2ccc(OCc3cn(CCCCCOc4cc(=O)oc5ccccc45)nn3)c(OC)c2)cc1OC"
  inhibition of growth at 50 µM, %: 43
- structure_smiles: "COc1cc(/C=C/C(=O)/C=C/c2ccccc2)ccc1OCc1cn(CCCOc2cc(=O)oc3ccccc23)nn1"
  inhibition of growth at 50 µM, %: 43

Look at this compound and give its reported inhibition of growth at 50 µM. COc1cc(/C=C/C(=O)/C=C/c2cccc3ccccc23)ccc1OCc1cn(CCOc2cc(=O)oc3ccccc23)nn1 85
